Study system: NLRP3 (purified) (Homo sapiens, UniProt Q96P20, K138A/K142A/R137C)
Sequence (Q96P20 136-1034 R137C/K138A/K142A): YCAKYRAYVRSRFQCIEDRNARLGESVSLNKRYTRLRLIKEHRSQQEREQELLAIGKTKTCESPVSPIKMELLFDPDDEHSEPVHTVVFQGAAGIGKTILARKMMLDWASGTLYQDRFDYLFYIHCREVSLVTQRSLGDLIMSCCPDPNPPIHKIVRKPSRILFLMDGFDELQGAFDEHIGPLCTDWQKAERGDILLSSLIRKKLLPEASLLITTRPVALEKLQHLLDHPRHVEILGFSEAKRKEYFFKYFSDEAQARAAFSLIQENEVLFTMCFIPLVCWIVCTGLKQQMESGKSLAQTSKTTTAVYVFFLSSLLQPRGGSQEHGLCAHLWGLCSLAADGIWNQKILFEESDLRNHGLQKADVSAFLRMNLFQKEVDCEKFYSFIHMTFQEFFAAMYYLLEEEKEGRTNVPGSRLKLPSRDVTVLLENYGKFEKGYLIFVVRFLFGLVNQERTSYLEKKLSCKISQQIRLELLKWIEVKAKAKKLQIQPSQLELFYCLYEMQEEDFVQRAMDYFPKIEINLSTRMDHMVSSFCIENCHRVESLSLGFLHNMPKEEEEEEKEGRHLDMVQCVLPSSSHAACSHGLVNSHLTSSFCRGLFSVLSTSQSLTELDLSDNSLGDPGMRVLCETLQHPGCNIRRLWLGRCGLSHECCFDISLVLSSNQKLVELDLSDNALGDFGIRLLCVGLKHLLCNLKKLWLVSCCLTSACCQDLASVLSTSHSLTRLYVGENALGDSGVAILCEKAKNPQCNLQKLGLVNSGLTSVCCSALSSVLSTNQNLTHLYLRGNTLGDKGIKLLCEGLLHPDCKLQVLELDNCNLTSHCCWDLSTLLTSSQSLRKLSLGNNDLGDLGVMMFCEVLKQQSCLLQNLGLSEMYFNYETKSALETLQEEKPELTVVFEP
Test summary: fluorescence polarization displacement
pIC50: −log10 of the molar value.

Input smiles	Study system	pIC50
O=C(CN1C[C@@H](C(F)(F)F)c2cc(I)ccc2C1=O)Nc1ncc(F)cn1	NLRP3 (purified) (Homo sapiens, UniProt Q96P20, K138A/K142A/R137C)	7.71
